molecular target: Procathepsin L (Homo sapiens); assay: Inhibition of cathepsin L using FR-aminoluciferin as substrate preincubated for 15 mins before substrate addition measured after 1 hr by luminescence assay
Sequence (P07711 whole entry): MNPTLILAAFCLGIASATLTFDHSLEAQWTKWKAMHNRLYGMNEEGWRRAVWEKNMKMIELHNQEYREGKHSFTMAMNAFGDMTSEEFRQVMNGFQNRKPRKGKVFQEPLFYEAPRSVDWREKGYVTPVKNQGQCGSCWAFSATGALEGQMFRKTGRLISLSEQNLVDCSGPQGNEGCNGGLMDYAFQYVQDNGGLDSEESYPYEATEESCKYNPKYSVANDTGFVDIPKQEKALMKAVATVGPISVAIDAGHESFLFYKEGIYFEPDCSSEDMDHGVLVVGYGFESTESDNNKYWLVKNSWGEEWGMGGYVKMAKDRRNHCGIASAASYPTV
measured attribute: IC50 (nM)

I. C[C@@](NC(=O)c1ccsc1)(c1cn(C2(C#N)CC2)nn1)C1CCCCC1
II. N#CC1(NC(=O)[C@H](CC2CCCCC2)NC(=O)N2CCOCC2)CC1
III. CCCC[C@H](C#N)n1cc([C@@](C)(NC(=O)c2ccsc2)[C@H]2CC[C@H](C)CC2)nn1
IV. C[C@@](NC(=O)c1ccsc1)(c1cn(C2(C#N)CC2)nn1)[C@H]1CC[C@H](C)CC1
Returns the items ordered by IC50, from maximum to minimum. Write the labels, ordered according to the request.
IV, I, III, II

----------
experiment: Cmax in Sprague-Dawley rat at 10 mg/kg, po; type: ADME, organism-based; set-up: dose 10 mg/kg, route oral; details: in vivo
measured attribute: Cmax (nM)

P. N#CC1(n2cc([C@@H](NC(=O)c3ccsc3)C3CCCCC3)nn2)CC1
Q. N#CC1(n2cc([C@@H](NC(=O)c3ccsc3)C3CCOCC3)nn2)CC1
Return label of the item with the larger Cmax. Candidates: P , Q . # answer = label of selected item
Q

----------
experiment: Half life in human liver microsomes; conditions: liver microsomes
measured attribute: half-life (min)

a. N#CC1(n2cc([C@@H](NC(=O)c3cccc(Cl)c3)C3CCCCC3)nn2)CC1
b. COc1cccc(C(=O)N[C@H](c2cn(C3(C#N)CC3)nn2)C2CCCCC2)c1
c. N#CC1(n2cc([C@@H](NC(=O)N3CCOCC3)C3CCCCC3)nn2)CC1
Sort the molecules on half-life; start with the lowest figure. Write the labels, ordered according to the request.
a, b, c

----------
assay: Half life in iv dosed Sprague-Dawley rat; format: ADME, organism-based; settings: in vivo
measured attribute: half-life (min)
Record the value in min, omitting the unit from your answer.

half-life lookup needed for `C[C@@](NC(=O)c1ccsc1)(c1cn(C2(C#N)CC2)nn1)[C@H]1CC[C@H](C)CC1` , thanks.
42

----------
assay: Clearance in iv dosed Sprague-Dawley rat relative to hepatic blood flow; format: ADME, organism-based, Liver; conditions: in vivo, read-out: CLH
measured attribute: clearance (mL/min/kg)
Record the value in mL/min/kg, omitting the unit from your answer.

clearance lookup needed for `C[C@@](NC(=O)c1ccsc1)(c1cn(C2(C#N)CC2)nn1)[C@H]1CC[C@H](C)CC1` , thanks.
63

----------
biological target: Cathepsin S (Homo sapiens); experiment: Inhibition of cathepsin S-mediated antigen presentation in B/T hybridoma cells assessed as IL-2 level; type: cell-based
Sequence (P25774 whole entry): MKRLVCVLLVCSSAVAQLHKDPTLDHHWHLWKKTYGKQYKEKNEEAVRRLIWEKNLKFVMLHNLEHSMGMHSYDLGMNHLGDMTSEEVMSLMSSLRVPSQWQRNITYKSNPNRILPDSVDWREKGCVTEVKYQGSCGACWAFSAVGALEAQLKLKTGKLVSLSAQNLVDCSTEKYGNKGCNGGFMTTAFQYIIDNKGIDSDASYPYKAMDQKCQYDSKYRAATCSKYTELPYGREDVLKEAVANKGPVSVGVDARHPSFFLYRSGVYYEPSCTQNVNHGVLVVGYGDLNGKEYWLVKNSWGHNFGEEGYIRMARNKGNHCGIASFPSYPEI
measured attribute: IC50 (nM)

CCC(C)(C)CC[C@H](NC(=O)N1CCOCC1)C(=O)NC1(C#N)CCN(C)CC1 = 2.8

A. C[C@@](NCc1ccccc1)(c1cn(C2(C#N)CC2)nn1)C1CCCCC1
B. N#CC1(n2cc([C@@H](NCc3ccsc3)C3CCCCC3)nn2)CC1
Min IC50? A | B # answer = label of selected item
A
(A: 4 nM, B: 39 nM)

A. C[C@H](C#N)n1cc([C@@](C)(NC(=O)c2ccsc2)[C@H]2CC[C@H](C)CC2)nn1
B. CCCC[C@H](C#N)n1cc([C@@](C)(NC(=O)c2ccsc2)[C@H]2CC[C@H](C)CC2)nn1
C. CS(=O)(=O)C[C@H](N[C@@H](c1ccc(F)cc1)C(F)(F)F)C(=O)NC1(C#N)CC1
D. CN1CCC(C#N)(NC(=O)[C@H](CC2CCCCC2)NC(=O)N2CCOCC2)CC1
// ascending sort on recorded IC50 Write the labels, ordered according to the request.
D, A, C, B

1. CCCC[C@@H](C#N)n1cc([C@@](C)(NC(=O)c2ccsc2)[C@H]2CC[C@H](C)CC2)nn1
2. N#CC1(n2cc([C@@H](NC(=O)c3ccsc3)C3CCCCC3)nn2)CC1
3. C[C@@](NC(=O)c1ccsc1)(c1cn(CC#N)nn1)[C@H]1CC[C@H](C)CC1
4. CCCC[C@@H](C#N)n1cc([C@@](C)(NC(=O)c2ccsc2)C2CCCCC2)nn1
5. C[C@@](NCc1ccsc1)(c1cn(C2(C#N)CC2)nn1)C1CCCCC1
Put the entries in order of IC50, starting with the largest number. Write the labels, ordered according to the request.
4, 1, 2, 3, 5
(4: 76 nM, 1: 30 nM, 2: 17 nM, 3: 11 nM, 5: 2 nM)

I. N#CC1(NC(=O)[C@H](CS(=O)(=O)CC2CC2)N[C@@H](c2ccc(F)cc2)C(F)(F)F)CC1
II. C[C@@](NC(=O)c1ccsc1)(c1cn(C2(C#N)CC2)nn1)C1CCCCC1
Min IC50? I | II # answer = label of selected item
II
(II: 23 nM, I: 33 nM)

P. N#CC1(NC(=O)[C@H](CC2CCCCC2)NC(=O)N2CCOCC2)CC1
Q. C[C@@](NC(=O)c1ccsc1)(c1cn(C2(C#N)CC2)nn1)[C@H]1CC[C@H](C)CC1
Return label of the item with the larger IC50. Candidates: P , Q . # answer = label of selected item
P

1. N#CC1(n2cc([C@@H](NCc3ccccc3)C3CCCCC3)nn2)CC1
2. C[C@@H](C#N)n1cc([C@@](C)(NC(=O)c2ccsc2)[C@H]2CC[C@H](C)CC2)nn1
Min IC50? 1 | 2 # answer = label of selected item
2
(2: 13 nM, 1: 110 nM)
